tested on: SK-MEL-28; test: NCI tumour cell line growth inhibition, 48 h
The source made the active and inactive calls. Cut-off read from the data, not from the text of the source: active = GI50 up to about 1.1 µM and inactive = higher.
One label from this list, please: 1 = active, 0 = inactive

Here's what some known entries look like.
CCCCCCC1=NOC(C(c2cc[nH]c2)N(C)[C@H](C(=O)OC)C(C)C)C1 (some centres undefined)	0
CC(C)C(=O)/C=C/S/C=C/C(=O)C(C)C	0
Cc1cccc2c(N)c3cccc(C(=O)NCC[N+](C)(C)[O-])c3nc12	0
O=C(/C=C/c1ccccc1)Oc1ccc(C(=O)/C=C/c2ccc(Cl)cc2)cc1	0
N#CC(C#N)C1CN2CCC1CC2 (centres undefined)	0
COC(=O)c1cc2cc3c(c(O)c2c(=O)o1)O[C@@]1(Oc2c(O)c4c(c(O)c2[C@H]1OC1CC(OC)C(O)C(C)O1)C(=O)C=C(OC)C4=O)[C@H](O)C3 (some centres undefined)	1
CC1=NN(C(=O)CC(=O)NC(=O)/C=C\c2ccccc2)C(=O)C1/N=N/c1ccc([N+](=O)[O-])cc1 (centres undefined)	0
C=C1C(=O)C23CC1C[C@H](OC(C)=O)C2C1(C)C(OC(C)=O)C[C@H](O)C(C)(C)[C@H]1C(O)[C@@H]3OC(C)=O (some centres undefined)	0

Q. Please share the test call associated with Cc1noc(C)c1C1=CCCCc2ccccc21 .
A. 0

Q. Please share the test call associated with COC(=O)c1c2c(cc3c1CC1(C3)Cc3cc4c(c(C(C)=O)c3C1)CCC4)C=CC2 (centres undefined) .
A. 0

Q. Please share the test call associated with CCNC(=O)Nc1cccc(C)n1 .
A. 0
